Origin of values: patent US10815200B2

- Tested On: PSMA (Homo sapiens, UniProt Q04609)
- Sequence (Q04609 whole entry): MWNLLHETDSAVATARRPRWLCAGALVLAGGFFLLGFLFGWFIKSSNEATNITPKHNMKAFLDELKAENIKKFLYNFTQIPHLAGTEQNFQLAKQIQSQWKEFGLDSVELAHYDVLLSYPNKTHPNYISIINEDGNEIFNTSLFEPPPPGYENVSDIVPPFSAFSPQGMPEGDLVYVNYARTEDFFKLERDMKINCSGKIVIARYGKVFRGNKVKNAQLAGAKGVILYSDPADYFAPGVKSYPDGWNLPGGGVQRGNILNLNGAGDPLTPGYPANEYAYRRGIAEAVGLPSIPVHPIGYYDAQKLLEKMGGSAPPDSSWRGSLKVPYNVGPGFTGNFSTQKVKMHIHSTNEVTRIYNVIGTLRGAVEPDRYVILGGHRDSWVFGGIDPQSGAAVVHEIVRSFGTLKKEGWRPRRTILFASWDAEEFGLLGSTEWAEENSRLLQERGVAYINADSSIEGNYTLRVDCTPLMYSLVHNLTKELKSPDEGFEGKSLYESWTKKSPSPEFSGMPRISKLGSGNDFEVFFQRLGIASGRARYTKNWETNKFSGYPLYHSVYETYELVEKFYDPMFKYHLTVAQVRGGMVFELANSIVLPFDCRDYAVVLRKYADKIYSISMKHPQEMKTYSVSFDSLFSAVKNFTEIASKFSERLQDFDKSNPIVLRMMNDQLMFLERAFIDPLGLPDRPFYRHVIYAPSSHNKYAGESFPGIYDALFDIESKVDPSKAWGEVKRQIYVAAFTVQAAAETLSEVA
IC50 values for the compounds below.

{"Compound": "O=C(O)CC[C@H](NC(=O)N[C@@H](CCCCNC(=O)[C@@H](Cc1ccc2ccccc2c1)NC(=O)CC[C@@H](NC(=O)[C@@H](CCC(=O)O)NC(=O)c1ccnc(F)c1)C(=O)O)C(=O)O)C(=O)O", "Display Unit": "nM", "IC50": 7}
{"Compound": "O=C(O)CC[C@@H](NC(=O)N[C@H](CCCCNC(=O)[C@@H](Cc1ccc2ccccc2c1)NC(=O)[C@@H](CCC(=O)O)NC(=O)[C@@H](CCC(=O)O)NC(=O)c1ccnc(F)c1)C(=O)O)C(=O)O", "Display Unit": "nM", "IC50": 7}
{"Compound": "O=C(O)CCC(NC(=O)NC(CCCCNC(=O)C(Cc1ccc2ccccc2c1)NC(=O)c1ccc(CNC(=O)C(CNC(=O)C(CNC(=O)c2ccc(F)nc2)S(=O)(=O)O)S(=O)(=O)O)cc1)C(=O)O)C(=O)O (stereo not drawn)", "Display Unit": "nM", "IC50": 7}
